Target: UniProtKB P50406
Sequence (P50406 whole entry): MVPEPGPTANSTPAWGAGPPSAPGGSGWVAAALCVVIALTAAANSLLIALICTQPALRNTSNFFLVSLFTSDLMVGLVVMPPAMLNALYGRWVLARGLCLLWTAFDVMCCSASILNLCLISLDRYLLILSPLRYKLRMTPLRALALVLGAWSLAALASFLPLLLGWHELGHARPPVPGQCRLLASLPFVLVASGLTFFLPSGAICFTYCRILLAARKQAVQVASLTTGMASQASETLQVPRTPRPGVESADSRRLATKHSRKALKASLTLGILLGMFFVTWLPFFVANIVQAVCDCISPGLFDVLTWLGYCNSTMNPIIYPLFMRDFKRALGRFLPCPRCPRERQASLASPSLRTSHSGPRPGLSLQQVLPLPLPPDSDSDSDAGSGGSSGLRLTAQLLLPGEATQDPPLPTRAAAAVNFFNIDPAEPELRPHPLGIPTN
Experiment: biochemical
pKi: −log10 of the molar value.
Threshold rule: pKi greater than or equal to 8 is Met; below that, Not met.

Smiles notation	Group label
O=S(=O)(NCCCN1CCC(c2noc3cc(F)ccc23)CC1)c1ccc(F)c(Cl)c1	Met
O=S(=O)(NCCCCN1CCN(c2noc3ccccc23)CC1)c1cccs1	Not met
O=S(=O)(NCCCCN1CCN(c2nsc3ccccc23)CC1)c1ccc2ccccc2c1	Met
O=S(=O)(NCCCCN1CCN(c2noc3ccccc23)CC1)c1ccc2cc(Cl)ccc2c1	Not met
Cc1c(S(=O)(=O)NCCCN2CCC(c3noc4cc(F)ccc34)CC2)sc2ccc(F)cc12	Not met
O=S(=O)(NCCCN1CCN(c2noc3ccccc23)CC1)c1ccc(Cl)c(Cl)c1	Not met
O=S(=O)(NCCCN1CCN(c2nsc3ccccc23)CC1)c1cc2ccccc2s1	Not met
Cc1cccc(S(=O)(=O)NCCCCN2CCC(c3noc4cc(F)ccc34)CC2)c1	Not met
O=S(=O)(NCCN1CCC(c2noc3cc(F)ccc23)CC1)c1ccc2ccccc2c1	Not met
Cc1c(S(=O)(=O)NCCCN2CCN(c3nsc4ccccc34)CC2)sc2ccc(F)cc12	Not met
O=S(=O)(NCCCCN1CCC(c2noc3cc(F)ccc23)CC1)c1cccc2scnc12	Not met
O=S(=O)(NCCCN1CCN(c2noc3ccccc23)CC1)c1cccc2scnc12	Not met
O=S(=O)(NCCCN1CCN(c2nsc3ccccc23)CC1)c1cc2ccc(Cl)cc2s1	Not met
O=S(=O)(NCCCCN1CCN(c2noc3ccccc23)CC1)c1cc2ccc(Cl)cc2s1	Not met
Cc1c(S(=O)(=O)NCCCCN2CCC(c3noc4cc(F)ccc34)CC2)sc2ccc(F)cc12	Met
O=S(=O)(NCCCN1CCN(c2nsc3ccccc23)CC1)c1ccc2cc(Cl)ccc2c1	Not met
Cc1cccc(S(=O)(=O)NCCCN2CCN(c3nsc4ccccc34)CC2)c1	Not met
O=S(=O)(NCCCN1CCN(c2noc3ccccc23)CC1)c1ccc2ccccc2c1	Not met
